Hey, just so you know, these numbers are from PubChem BioAssay (NCI).

# Test system: SK-OV-3 ovarian
# assay info: NCI-60 one-dose screen, 48 h (100 = growth as untreated, 0 = no growth, -100 = all killed)
# condition description: 10 µM
This is part of a sample that, as a whole, favours compounds with a hit. Of some 83,000 tested, about 20% had one in any assay.
For each entry below, report its growth value.
Write it as a number; the unit % goes unstated.

Problem: Given the molecule COc1ccc(C(=O)N/N=C/c2cc(C(F)(F)F)ccc2Cl)cc1 , write its reported growth.
Solution: 99.8

Problem: For the molecule COc1ccc(-c2nnc(SCC(=O)Nc3ccc(C(=O)/C=C/c4ccccc4)cc3)n2-c2ccccc2)cc1OC , give its reported growth.
Solution: 101

Problem: Supply recorded growth for C[C@@H](O)[C@H]1C(=O)N2C(C(=O)O)=C(SC3CN[C@H](C(=O)N(C)C)C3)[C@H](C)[C@H]12 (some centres undefined) here.
Solution: 115

Problem: Answer with the recorded growth of CCOC(=O)c1cc(C(=O)c2ccc(OC)c(OC)c2)n2c1ccc1ccc3cccnc3c12 only.
Solution: 17.8
